experiment: Plasma stability, human plasma; type: in vitro ADME; conditions: human
outcome_measure: recovery at 6 h (%)

[[record]]
molecule = "CCNS(=O)(=O)c1ccc(NC2C3CC4CC(C3)CC2C4)c(NCc2ccccc2)c1 (stereo not shown)"
observed = 100

[[record]]
molecule = "CCNS(=O)(=O)c1ccc(NC2CCCCC2)c(NCc2ccccc2)c1"
observed = 100

[[record]]
molecule = "CCNS(=O)(=O)c1ccc(NC2CCCCC2)c(N)c1"
observed = 81.9

[[record]]
molecule = "CCNS(=O)(=O)c1ccc(NC2C3CC4CC(C3)CC2C4)c(NCc2ccncc2)c1 (stereo not shown)"
observed = 100

